All values here come from patent US10183950B2.

This listing pairs compounds with measured pIC50.
molecular target: full-length human PKCι (Homo sapiens, UniProt P41743); construct: Recombinant, full-length human PKCι expressed in Sf21 insect cells is also commercially available; purchased; host or cells: Sf21 insect cells; assay: PKCι IC50 IMAP fluorescence polarisation assay, full-length enzyme; type: biochemical; conditions: full length PKCi at 15 μM ATP; read-out: IC50 in IMAP assay against full length PKCi
Sequence (P41743 whole entry): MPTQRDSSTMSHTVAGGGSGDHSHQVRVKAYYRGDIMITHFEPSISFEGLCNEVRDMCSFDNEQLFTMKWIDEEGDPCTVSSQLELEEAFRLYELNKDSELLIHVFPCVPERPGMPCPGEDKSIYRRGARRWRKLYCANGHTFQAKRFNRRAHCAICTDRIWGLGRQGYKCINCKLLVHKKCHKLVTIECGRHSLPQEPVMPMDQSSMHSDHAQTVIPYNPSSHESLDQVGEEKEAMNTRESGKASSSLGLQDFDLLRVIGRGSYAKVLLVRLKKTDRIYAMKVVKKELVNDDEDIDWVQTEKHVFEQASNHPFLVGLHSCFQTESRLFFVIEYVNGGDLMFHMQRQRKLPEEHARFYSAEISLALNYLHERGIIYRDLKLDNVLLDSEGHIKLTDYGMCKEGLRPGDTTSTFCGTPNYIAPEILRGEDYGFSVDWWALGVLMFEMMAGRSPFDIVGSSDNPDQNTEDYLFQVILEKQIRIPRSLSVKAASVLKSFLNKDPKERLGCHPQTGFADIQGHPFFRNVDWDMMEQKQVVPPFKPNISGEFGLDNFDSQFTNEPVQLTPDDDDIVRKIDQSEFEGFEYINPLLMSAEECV
pIC50: −log10 of the molar value.

COMPOUND_STRUCTURE_STRING	pIC50
CN(C)C(=O)c1csc2c(NC[C@@H](N)Cc3ccccc3)nc(-c3ccncc3)nc12	5.00 to 6.00
NC(=O)CN1CC[C@@H](Nc2nc(-c3ccncc3)nc3ccsc23)C1	4.40 to 5.00
COc1cccc(Cl)c1-c1c(C)sc2c(NC[C@@H](N)Cc3ccccc3)nc(-c3ccncc3)nc12	4.40 to 5.00

// below: pIC50 requested for another compound
**Q:** # lookup: pIC50 of CCC(C)(C)C(=O)Nc1csc2c(N[C@@H]3CCNC3)nc(-c3ccncc3)nc12
**A:** 4.40 to 5.00
